Assay: Determination of oral bioavailability of Abiraterone conjugates (plasma AUClast after oral gavage)
Type: in vivo
Set-up: key: AUClast value for Zytiga; +: 1.1-6-fold increase compared to Zytiga; ++: >7-fold increase compared to Zytiga
Settings: female Beagle dogs, single dose 15 μmole/kg by oral gavage, 24 h; fold increase compared to Zytiga
Protocol: Relative and absolute bioavailability may be determined in different animal models and according to different protocols. The following protocol is typical for determining bioavailability in female Beagle dogs. […] Pharmacokinetic parameters were calculated from concentration versus time data using non-compartmental pharmacokinetic methods using Phoenix pharmacokinetic software. […]
Endpoint name: AUClast (total amount abiraterone and conjugate)

| Molecule | Reported |
| --- | --- |
| CC(=O)O[C@H]1CC[C@@]2(C)C(=CC[C@@H]3[C@@H]2CC[C@]2(C)C(c4cccnc4)=CC[C@@H]32)C1 [3-O-Acetate (Zytiga), reference compound] | o |

Sourced from patent US11633484B2
